B1: TSN (parent)
chain: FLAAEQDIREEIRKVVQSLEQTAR

variants of: B1; assay: protein stability index of a GFP-peptide fusion (GPS, HEK-293T) (PSI 1-6); higher = more stable; conditions: c terminus: a fixed tail appended;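 also: lentivirally expressed fusions sorted by FACS into six bins by GFP to DsRed ratio, PSI derived from sequencing read proportions per bin multiplied by bin number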
Quantity Name: protein stability index

Mutant: K14H
Data Value: 1.98

Mutant: F1Y
Data Value: 2.04

Mutant: L2M
Data Value: 1.96

Mutant: A4Y
Data Value: 2.03

Mutant: R9Q
Data Value: 2.04

Mutant: Q21C
Data Value: 2.01

Mutant: Q17R
Data Value: 2.02
